# STUDY_SYSTEM: hCRTH2 (Homo sapiens, UniProt Q9Y5Y4)
# Construct: expressed in transfected cells; host or cells: HEK (human embryonic kidney) cells expressing hCRTH2; membrane preparation
# Sequence (Q9Y5Y4 whole entry): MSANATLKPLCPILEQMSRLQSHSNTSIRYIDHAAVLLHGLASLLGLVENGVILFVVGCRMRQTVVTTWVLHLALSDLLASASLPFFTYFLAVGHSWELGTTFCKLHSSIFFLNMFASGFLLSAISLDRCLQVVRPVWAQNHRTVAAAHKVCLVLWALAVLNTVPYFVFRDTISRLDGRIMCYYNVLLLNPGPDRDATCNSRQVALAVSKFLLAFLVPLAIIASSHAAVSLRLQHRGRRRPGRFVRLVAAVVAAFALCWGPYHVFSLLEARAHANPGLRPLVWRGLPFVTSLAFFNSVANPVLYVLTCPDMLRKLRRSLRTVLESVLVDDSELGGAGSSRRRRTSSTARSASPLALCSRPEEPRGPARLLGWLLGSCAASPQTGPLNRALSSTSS
# TEST_SUMMARY: Radioligand binding assay ([3H]PGD2 competition, HEK-hCRTH2 membranes)
# MEASUREMENT_CONTEXT: [3H]PGD2 binding, rated A-E (Table A)
pKi: −log10 of the molar value.

COMPOUND | pKi
O=C(O)CCCCc1nc2cc(C(=O)N3CCC(c4ccccc4)CC3)ccc2nc1-c1cccnc1 [26M] | 7.70 to 8.68
O=C(O)CCCCc1nc2cc(C(=O)NCc3ccc(F)cc3)ccc2nc1-c1ccccc1 [15AD] | 7.70 to 8.68
CN(C(=O)c1ccc2nc(-c3ccccc3)c(CCCCC(=O)O)nc2c1)C1CCOC1 (centres unmarked) [15Bo] | 6.70 to 7.70
O=C(O)CCCCc1nc2cc(C(=O)N3CC=C(c4ccccc4)CC3)ccc2nc1-c1ccc(F)cc1 [compound 127] | 7.70 to 8.68
C[C@@H](NC(=O)c1ccc2nc(-c3ccccc3)c(CCCCC(=O)O)nc2c1)c1ccc(F)cc1 [15D] | 8.70 to 10.00
O=C(O)CCCCc1nc2cc(C(=O)N3CCC(Cc4ccccc4)C3)ccc2nc1-c1ccccc1 (centres unmarked) [15R] | 8.70 to 10.00
CC(CCCc1nc2cc(C(=O)NCc3cccc(F)c3)ccc2nc1-c1ccc(F)cc1)C(=O)O (centres unmarked) [compound 203] | 7.70 to 8.68
O=C(O)CCCCc1nc2cc(C(=O)NCc3cccc(Cl)c3)ccc2nc1-c1ccc(Cl)cc1 [16F] | 8.70 to 10.00
CS(=O)(=O)N1CC2(CCN(C(=O)c3ccc4nc(-c5ccccc5)c(CCCCC(=O)O)nc4c3)CC2)c2ccccc21 [compound 118] | 7.70 to 8.68
CC(CCc1nc2cc(C(=O)N[C@H](C)c3ccc(Cl)cc3)ccc2nc1-c1ccc(Cl)cc1)CC(=O)O (some centres unmarked) [17E] | 7.70 to 8.68
O=C(O)CCCCc1nc2cc(C(=O)N3CCCc4ccccc43)ccc2nc1-c1ccccc1 [15Bi] | 8.70 to 10.00
O=C(O)CCCCc1nc2cc(C(=O)N3CCC(c4ccccc4)C3)ccc2nc1-c1ccc(C(F)(F)F)cc1 (stereo in doubt) [compound 152] | 7.70 to 8.68
O=C(O)CCCCc1nc2cc(C(=O)N3CCCCC3)ccc2nc1-c1ccccc1 [15BF] | 7.70 to 8.68
O=C(O)CCCCc1nc2cc(C(=O)NC3c4ccccc4CC3O)ccc2nc1-c1ccccc1 (centres unmarked) [15AQ] | 7.70 to 8.68
CC(CCc1nc2cc(C(=O)N[C@@H](C)c3ccc(Cl)cc3)ccc2nc1-c1ccc(Cl)cc1)CC(=O)O (some centres unmarked) [17D] | 8.70 to 10.00
O=C(O)CCCCc1nc2cc(C(=O)c3ccccc3)ccc2nc1-c1ccc(F)cc1 [5G] | 8.70 to 10.00
N#Cc1ccc(CNC(=O)c2ccc3nc(-c4ccc(F)cc4)c(CCc4cccc(CC(=O)O)c4)nc3c2)cc1 [compound 194] | 6.70 to 7.70

* * *

Quick reference: pKi of the listed items.
# STUDY_SYSTEM: hCRTH2 (Homo sapiens)
# Construct: expressed in transfected cells; host or cells: HEK (human embryonic kidney) cells expressing hCRTH2; membrane preparation
# TEST_SUMMARY: Radioligand binding assay ([3H]PGD2 competition, HEK-hCRTH2 membranes)
# MEASUREMENT_CONTEXT: [3H]PGD2 competition, Table B
pKi: −log10 of the molar value.

COMPOUND | STUDY_SYSTEM | pKi
O=C(O)CCCCc1nc2cc(C(=O)N3CC(c4ccc(F)cc4)C3)ccc2nc1-c1ccc(Cl)cc1 | hCRTH2 (Homo sapiens) | 7.70 to 8.68
O=C(O)CCCCc1nc2cc(C(=O)N[C@@H]3CCOc4cc(C(F)(F)F)ccc43)ccc2nc1-c1ccc(Cl)cc1 | hCRTH2 (Homo sapiens) | 7.70 to 8.68
CN1C(=O)c2ccccc2C12CCN(C(=O)c1ccc3nc(-c4ccc(Cl)cc4)c(CCCCC(=O)O)nc3c1)CC2 | hCRTH2 (Homo sapiens) | 7.70 to 8.68
O=C(O)CCCCc1nc2cc(C(=O)N3CCN(c4ccccc4C(F)(F)F)CC3)ccc2nc1-c1ccc(Cl)cc1 | hCRTH2 (Homo sapiens) | 8.70 to 10.00
O=C(O)CCCCc1nc2cc(C(=O)N3C[C@H]4CC[C@@H](C3)N4Cc3ccccc3)ccc2nc1-c1ccc(Cl)cc1 | hCRTH2 (Homo sapiens) | 7.70 to 8.68
O=C(O)CCCCc1nc2cc(C(=O)N3CCN(c4ncccc4Cl)CC3)ccc2nc1-c1ccc(Cl)cc1 | hCRTH2 (Homo sapiens) | 7.70 to 8.68
C[C@@H](NC(=O)c1ccc2nc(-c3ccc(F)cc3)c(CCCCC(=O)O)nc2c1)c1ccc(F)cn1 | hCRTH2 (Homo sapiens) | 7.70 to 8.68
O=C(O)CCCCc1nc2cc(C(=O)N3CCCCCC3c3cccnc3)ccc2nc1-c1ccc(Cl)cc1 (centres unmarked) | hCRTH2 (Homo sapiens) | 6.15 to 6.70
CC(CCCc1nc2cc(C(=O)N[C@@H]3CCCc4cc(F)ccc43)ccc2nc1-c1ccccc1)C(=O)O (some centres unmarked) | hCRTH2 (Homo sapiens) | 7.70 to 8.68
CC(CCc1nc2cc(C(=O)N[C@H](C)c3ccc(F)cc3)ccc2nc1-c1ccc(Cl)cc1)CC(=O)O (some centres unmarked) | hCRTH2 (Homo sapiens) | 8.70 to 10.00
C[C@H](NC(=O)c1ccc2nc(-c3ccc(F)cc3)c(CCC[C@H](C)C(=O)O)nc2c1)c1ccc(F)cc1 | hCRTH2 (Homo sapiens) | 7.70 to 8.68
CN(Cc1ccc(F)cc1)C(=O)c1ccc2nc(-c3ccc(F)cc3)c(CCCC(F)(F)C(=O)O)nc2c1 | hCRTH2 (Homo sapiens) | 6.70 to 7.70
O=C(O)CCCCc1nc2cc(C(=O)N3CCOC[C@H]3c3ccccc3)ccc2nc1-c1ccc(Cl)cc1 | hCRTH2 (Homo sapiens) | 7.70 to 8.68
CC(CCc1nc2cc(C(=O)N[C@@H]3CCCc4ccccc43)ccc2nc1-c1ccc(F)cc1)CC(=O)O (some centres unmarked) | hCRTH2 (Homo sapiens) | 7.70 to 8.68
